Values from paper PMC3489029

A short record of pKd observed with cell wall binding domain of the endolysin PlyG (Bacillus phage Gamma, UniProt Q8LTE6) follows.
Sequence (Q8LTE6 166-233 limits assumed): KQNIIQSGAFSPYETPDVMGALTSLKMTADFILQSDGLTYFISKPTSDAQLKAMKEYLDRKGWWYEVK
Notebook: values listed as pKd are -log10 of the concentration (mol/L).

In the examples that follow, each entry is paired with its recorded pKd.
CC(=O)N[C@@H]1[C@H](O[C@H]2[C@H](O)[C@@H](NC(C)=O)[C@H](OCCCCCN)O[C@@H]2CO)O[C@H](CO)[C@@H](O[C@H]2O[C@H](CO)[C@@H](O)[C@H](O)[C@H]2NC(C)=O)[C@@H]1O [Compound 2]: 5.07
CC(=O)N[C@@H]1[C@H](O[C@H]2[C@H](O)[C@@H](NC(C)=O)[C@H](OCCCCCN)O[C@@H]2CO)O[C@H](CO)[C@@H](O)[C@@H]1O [Compound 6]: 4.31

In the following, a different compound is considered.
The reported pKd value, cell wall binding domain of the endolysin PlyG (Bacillus phage Gamma, UniProt Q8LTE6), for CC(=O)N[C@@H]1[C@H](O[C@H]2[C@H](O)[C@@H](NC(C)=O)[C@H](OCCCCCN)O[C@@H]2CO)O[C@H](CO)[C@@H](O[C@H]2O[C@H](CO)[C@H](O)[C@H](O)[C@H]2NC(C)=O)[C@@H]1O [Compound 7] reads 4.71

---

target: cell wall binding domain of the endolysin PlyL (Bacillus anthracis, UniProt A0A6H3AMF3)
Sequence (A0A6H3AMF3 160-234 limits assumed): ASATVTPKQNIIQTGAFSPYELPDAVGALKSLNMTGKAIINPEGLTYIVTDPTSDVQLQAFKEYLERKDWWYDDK
parameter: pKd
Notebook: values listed as pKd are -log10 of the concentration (mol/L).

In the examples that follow, each entry is paired with its recorded pKd.
CC(=O)N[C@@H]1[C@H](O[C@H]2[C@H](O)[C@@H](NC(C)=O)[C@H](OCCCCCN)O[C@@H]2CO)O[C@H](CO)[C@@H](O[C@H]2O[C@H](CO)[C@@H](O)[C@H](O[C@H]3O[C@H](CO)[C@H](O)[C@H](O)[C@H]3O)[C@H]2NC(C)=O)[C@@H]1O: 3.82
CC(=O)N[C@@H]1[C@H](O[C@H]2[C@H](O[C@H]3O[C@H](CO)[C@H](O)[C@H](O)[C@H]3O)[C@@H](NC(C)=O)[C@H](OCCCCCN)O[C@@H]2CO)O[C@H](CO)[C@@H](O[C@H]2O[C@H](CO)[C@@H](O[C@@H]3O[C@H](CO)[C@H](O)[C@H](O)[C@H]3O)[C@H](O[C@H]3O[C@H](CO)[C@H](O)[C@H](O)[C@H]3O)[C@H]2NC(C)=O)[C@@H]1O: 4.64
CC(=O)N[C@@H]1[C@H](O[C@H]2[C@H](O)[C@@H](NC(C)=O)[C@H](OCCCCCN)O[C@@H]2CO)O[C@H](CO)[C@@H](O)[C@@H]1O: 3.96

The reported pKd value, cell wall binding domain of the endolysin PlyL (Bacillus anthracis, UniProt A0A6H3AMF3), for "CC(=O)N[C@@H]1[C@H](O[C@H]2[C@H](O)[C@@H](NC(C)=O)[C@H](OCCCCCN)O[C@@H]2CO)O[C@H](CO)[C@@H](O[C@H]2O[C@H](CO)[C@H](O)[C@H](O)[C@H]2NC(C)=O)[C@@H]1O" reads 4.37

The reported pKd value, cell wall binding domain of the endolysin PlyL (Bacillus anthracis, UniProt A0A6H3AMF3), for "CC(=O)N[C@@H]1[C@H](O[C@H]2[C@H](O)[C@@H](NC(C)=O)[C@H](OCCCCCN)O[C@@H]2CO)O[C@H](CO)[C@@H](O[C@H]2O[C@H](CO)[C@@H](O[C@@H]3O[C@H](CO)[C@H](O)[C@H](O)[C@H]3O)[C@H](O)[C@H]2NC(C)=O)[C@@H]1O" reads 5.96

The reported pKd value, cell wall binding domain of the endolysin PlyL (Bacillus anthracis, UniProt A0A6H3AMF3), for "CC(=O)N[C@@H]1[C@H](O[C@H]2[C@H](O)[C@@H](NC(C)=O)[C@H](OCCCCCN)O[C@@H]2CO)O[C@H](CO)[C@@H](O[C@H]2O[C@H](CO)[C@@H](O)[C@H](O)[C@H]2NC(C)=O)[C@@H]1O" reads 4.87

The reported pKd value, cell wall binding domain of the endolysin PlyL (Bacillus anthracis, UniProt A0A6H3AMF3), for "CC(=O)N[C@@H]1[C@H](O[C@H]2[C@H](O[C@H]3O[C@H](CO)[C@H](O)[C@H](O)[C@H]3O)[C@@H](NC(C)=O)[C@H](OCCCCCN)O[C@@H]2CO)O[C@H](CO)[C@@H](O[C@H]2O[C@H](CO)[C@@H](O)[C@H](O)[C@H]2NC(C)=O)[C@@H]1O" reads 5.21

---

target: cell wall binding domain of the endolysin PlyG (Bacillus phage Gamma, UniProt Q8LTE6)
Parameter: pKd. Scope: all listed entries.
Notebook: values listed as pKd are -log10 of the concentration (mol/L).

The reported pKd value, cell wall binding domain of the endolysin PlyG (Bacillus phage Gamma, UniProt Q8LTE6), for "CC(=O)N[C@@H]1[C@H](O[C@H]2[C@H](O[C@H]3O[C@H](CO)[C@H](O)[C@H](O)[C@H]3O)[C@@H](NC(C)=O)[C@H](OCCCCCN)O[C@@H]2CO)O[C@H](CO)[C@@H](O[C@H]2O[C@H](CO)[C@@H](O[C@@H]3O[C@H](CO)[C@H](O)[C@H](O)[C@H]3O)[C@H](O[C@H]3O[C@H](CO)[C@H](O)[C@H](O)[C@H]3O)[C@H]2NC(C)=O)[C@@H]1O" reads 4.63

The reported pKd value, cell wall binding domain of the endolysin PlyG (Bacillus phage Gamma, UniProt Q8LTE6), for "CC(=O)N[C@@H]1[C@H](O[C@H]2[C@H](O)[C@@H](NC(C)=O)[C@H](OCCCCCN)O[C@@H]2CO)O[C@H](CO)[C@@H](O[C@H]2O[C@H](CO)[C@@H](O)[C@H](O[C@H]3O[C@H](CO)[C@H](O)[C@H](O)[C@H]3O)[C@H]2NC(C)=O)[C@@H]1O" reads 3.87

The reported pKd value, cell wall binding domain of the endolysin PlyG (Bacillus phage Gamma, UniProt Q8LTE6), for "CC(=O)N[C@@H]1[C@H](O[C@H]2[C@H](O)[C@@H](NC(C)=O)[C@H](OCCCCCN)O[C@@H]2CO)O[C@H](CO)[C@@H](O[C@H]2O[C@H](CO)[C@@H](O[C@@H]3O[C@H](CO)[C@H](O)[C@H](O)[C@H]3O)[C@H](O)[C@H]2NC(C)=O)[C@@H]1O" reads 5.68

The reported pKd value, cell wall binding domain of the endolysin PlyG (Bacillus phage Gamma, UniProt Q8LTE6), for "CC(=O)N[C@@H]1[C@H](O[C@H]2[C@H](O[C@H]3O[C@H](CO)[C@H](O)[C@H](O)[C@H]3O)[C@@H](NC(C)=O)[C@H](OCCCCCN)O[C@@H]2CO)O[C@H](CO)[C@@H](O[C@H]2O[C@H](CO)[C@@H](O)[C@H](O)[C@H]2NC(C)=O)[C@@H]1O" reads 5.39
